# system: RBP4 (Rattus norvegicus (Rat))
# procedure_text: Single administration test in Wistar fatty rats, plasma RBP4 by ELISA
# Assay type: in vivo
# condition: male Wistar fatty rats, 10 mg/kg oral single dose, 24 hr after administration, mean±SD
assay_metric: RBP4 (% of initial/Control) 24 hr

# annotated cases, reported RBP4 (% of initial/Control) 24 hr shown
CC(C)(C)c1ccccc1N1CCN(C(=O)CC(=O)O)CC1 [Example 9]	114.3 ± 6.0 % of initial/Control
O=C(O)CCc1nc(-c2cc(C(F)(F)F)cc(C(F)(F)F)c2)co1 [Reference Example 26, reference compound]	9.2 ± 6.1 % of initial/Control
CC(C)(C)c1ccccc1N1CCN(C(=O)C(=O)O)CC1 [Example 44]	106.0 ± 16.1 % of initial/Control

Input CC(C)(C)c1ccccc1N1CCN(C(=O)NCC(=O)O)CC1 [Example 6] . Output RBP4 (% of initial/Control) 24 hr: 104.5 ± 4.4 % of initial/Control

The compound identified as CC(C)(C)c1ccccc1N1CCN(C(=O)Cc2nnn[nH]2)CC1 [Example 58] registered its RBP4 (% of initial/Control) 24 hr at 97.9 ± 10.4 % of initial/Control

Quick note, RBP4 (% of initial/Control) 24 hr for CC(C)(C)c1ccccc1N1CCN(C(=O)CCC(=O)NS(C)(=O)=O)CC1 [Example 55] landed at 54.4 ± 14.3 % of initial/Control
